Measured values drawn from paper PMC6023986 for this set.

System: P-gp
PROTOCOL: in vitro
APPLIED CONDITIONS: rat, pH 6.5, with verapamil 220 μM, mucosal side, Papp M-S, with inhibitor, rat duodenum, with verapamil 220 μM on mucosal side
REPORTED METRIC: Papp (×10⁻⁶ cm/s)

[[record]]
record_smiles = "C[C@H]1O[C@@H](O[C@H]2[C@@H](O)C[C@H](O[C@H]3[C@@H](O)C[C@H](O[C@H]4CC[C@@]5(C)[C@H](CC[C@@H]6[C@@H]5C[C@@H](O)[C@]5(C)[C@@H](C7=CC(=O)OC7)CC[C@]65O)C4)O[C@@H]3C)O[C@@H]2C)C[C@H](O)[C@@H]1O"
measurement_unit = "×10⁻⁶ cm/s"
quantitative_readout = 45.3

